The origin of these recorded values is patent US11547697B2.

Documented IC50 across a set of compounds
# TARGET_SYSTEM: p110γ (Homo sapiens (Human))
# Sequence (P48736 whole entry): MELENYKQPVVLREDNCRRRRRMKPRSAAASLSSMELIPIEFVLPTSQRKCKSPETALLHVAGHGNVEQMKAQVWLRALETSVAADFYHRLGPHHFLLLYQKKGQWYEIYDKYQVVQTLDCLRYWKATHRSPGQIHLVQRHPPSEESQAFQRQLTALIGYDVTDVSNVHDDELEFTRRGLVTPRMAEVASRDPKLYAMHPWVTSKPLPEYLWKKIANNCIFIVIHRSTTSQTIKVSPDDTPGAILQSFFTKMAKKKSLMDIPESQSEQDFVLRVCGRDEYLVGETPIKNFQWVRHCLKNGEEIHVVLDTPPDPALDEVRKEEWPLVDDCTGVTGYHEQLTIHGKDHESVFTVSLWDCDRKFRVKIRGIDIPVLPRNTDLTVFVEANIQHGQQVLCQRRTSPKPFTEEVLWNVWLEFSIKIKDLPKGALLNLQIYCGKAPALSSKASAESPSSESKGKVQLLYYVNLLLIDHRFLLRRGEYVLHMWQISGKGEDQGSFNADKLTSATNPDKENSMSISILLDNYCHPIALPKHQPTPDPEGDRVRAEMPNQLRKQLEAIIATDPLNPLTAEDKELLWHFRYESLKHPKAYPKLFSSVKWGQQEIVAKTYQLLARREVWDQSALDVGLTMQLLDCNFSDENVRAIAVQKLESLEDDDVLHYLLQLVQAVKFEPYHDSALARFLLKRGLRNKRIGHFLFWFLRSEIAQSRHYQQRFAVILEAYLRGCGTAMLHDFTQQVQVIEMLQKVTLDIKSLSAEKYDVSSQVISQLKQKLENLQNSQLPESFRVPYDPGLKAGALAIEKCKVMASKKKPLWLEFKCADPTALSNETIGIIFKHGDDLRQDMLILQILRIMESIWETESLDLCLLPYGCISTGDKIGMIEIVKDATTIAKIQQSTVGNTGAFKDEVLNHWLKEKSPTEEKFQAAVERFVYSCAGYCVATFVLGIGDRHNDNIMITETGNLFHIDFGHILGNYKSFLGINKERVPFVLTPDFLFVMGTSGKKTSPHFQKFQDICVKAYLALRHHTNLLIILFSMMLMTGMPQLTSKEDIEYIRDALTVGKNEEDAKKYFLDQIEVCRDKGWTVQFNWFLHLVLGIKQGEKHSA
# ASSAY_PROTOCOL: PI 3-Kinase (human) HTRF assay, p110γ
# Type: biochemical
# ASSAY_CONTEXT: read-out: PI3K γ IC50

Consider the following illustrative entries.
{"columns": ["SAMPLE_SMILES", "IC50"],
 "data": [
  ["Nc1nc2cc(-c3ccc4ncc(-c5cn[nH]c5)n4c3)ccc2o1", "< 100 nM"],
  ["Nc1nc2cc(-c3ccc4ncc(-c5cccnc5)n4c3)ccc2o1", "< 100 nM"],
  ["CCNC(=O)c1cnc2ccc(-c3ccc4oc(N)nc4c3)cn12", "< 100 nM"],
  ["Nc1nc2cc(-c3ccc4ncc(OC5CCOCC5)nc4c3)ccc2o1", "< 1000 nM"],
  ["Nc1nc2cc(-c3ccc4ncc(C(=O)NC5CC5)n4c3)ccc2o1", "< 100 nM"],
  ["CN1CCC(N(C)c2cnc3ccc(-c4ccc5oc(N)nc5c4)cc3n2)CC1", "< 10000 nM"],
  ["Nc1noc2ccc(-c3ccc4nccc(-c5ccncc5)c4c3)cc12", "< 10000 nM"],
  ["CN1CCC(Nc2cnc3ccc(-c4ccc5oc(N)nc5c4)cc3n2)CC1", "< 1000 nM"]
]}

IN: Give IC50 for the following compound: CC(C)(C)N1CCN(c2cnc3ccc(-c4ccc5oc(N)nc5c4)cc3n2)CC1
OUT: < 1000 nM

###

# TARGET_SYSTEM: p110α/p85α (Homo sapiens (Human), UniProt P42336)
# Sequence (P42336 whole entry): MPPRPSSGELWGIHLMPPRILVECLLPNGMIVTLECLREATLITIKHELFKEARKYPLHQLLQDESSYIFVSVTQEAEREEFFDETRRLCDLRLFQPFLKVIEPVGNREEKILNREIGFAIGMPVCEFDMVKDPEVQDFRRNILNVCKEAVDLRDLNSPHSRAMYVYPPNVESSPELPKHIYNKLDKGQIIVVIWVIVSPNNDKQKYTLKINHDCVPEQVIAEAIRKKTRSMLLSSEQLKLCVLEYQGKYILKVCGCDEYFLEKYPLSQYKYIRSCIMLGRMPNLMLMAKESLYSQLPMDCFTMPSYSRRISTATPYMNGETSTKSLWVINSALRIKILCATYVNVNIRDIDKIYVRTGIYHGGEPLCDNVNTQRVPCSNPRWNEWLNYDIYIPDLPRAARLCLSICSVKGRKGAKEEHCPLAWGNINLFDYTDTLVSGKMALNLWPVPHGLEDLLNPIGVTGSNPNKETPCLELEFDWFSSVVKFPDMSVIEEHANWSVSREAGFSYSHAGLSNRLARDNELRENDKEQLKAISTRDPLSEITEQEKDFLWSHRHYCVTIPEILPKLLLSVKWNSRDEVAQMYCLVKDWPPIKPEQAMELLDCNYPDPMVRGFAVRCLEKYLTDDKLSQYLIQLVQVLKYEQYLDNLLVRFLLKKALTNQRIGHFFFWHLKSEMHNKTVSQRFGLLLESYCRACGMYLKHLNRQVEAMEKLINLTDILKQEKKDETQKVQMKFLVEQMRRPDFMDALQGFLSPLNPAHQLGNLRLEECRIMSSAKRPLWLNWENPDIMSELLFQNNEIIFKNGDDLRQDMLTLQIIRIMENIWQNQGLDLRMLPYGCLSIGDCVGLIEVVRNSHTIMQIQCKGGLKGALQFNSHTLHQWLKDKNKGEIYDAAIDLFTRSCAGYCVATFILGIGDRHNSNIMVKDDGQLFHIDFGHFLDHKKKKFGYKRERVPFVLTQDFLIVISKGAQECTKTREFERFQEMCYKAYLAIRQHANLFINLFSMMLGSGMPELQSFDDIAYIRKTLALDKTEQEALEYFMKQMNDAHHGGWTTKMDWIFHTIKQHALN
# Sequence (P27986 whole entry partner): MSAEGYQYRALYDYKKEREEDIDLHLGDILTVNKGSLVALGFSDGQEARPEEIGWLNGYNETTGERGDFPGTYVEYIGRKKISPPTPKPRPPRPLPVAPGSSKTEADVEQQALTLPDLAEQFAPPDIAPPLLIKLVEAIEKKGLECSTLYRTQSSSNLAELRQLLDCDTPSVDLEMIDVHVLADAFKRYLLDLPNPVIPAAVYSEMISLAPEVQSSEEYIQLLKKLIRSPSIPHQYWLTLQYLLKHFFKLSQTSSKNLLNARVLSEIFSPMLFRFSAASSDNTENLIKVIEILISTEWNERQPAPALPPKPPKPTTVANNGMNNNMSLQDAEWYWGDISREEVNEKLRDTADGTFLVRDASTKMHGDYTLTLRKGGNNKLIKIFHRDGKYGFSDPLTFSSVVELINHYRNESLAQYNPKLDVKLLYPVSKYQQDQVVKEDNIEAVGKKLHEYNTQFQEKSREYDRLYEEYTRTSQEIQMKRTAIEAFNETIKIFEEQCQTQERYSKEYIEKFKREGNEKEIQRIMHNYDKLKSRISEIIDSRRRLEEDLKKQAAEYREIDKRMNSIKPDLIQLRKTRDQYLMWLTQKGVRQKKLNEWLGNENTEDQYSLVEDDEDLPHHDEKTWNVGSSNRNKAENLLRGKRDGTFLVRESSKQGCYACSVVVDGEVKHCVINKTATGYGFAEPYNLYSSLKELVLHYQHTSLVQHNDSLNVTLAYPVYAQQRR
# ASSAY_PROTOCOL: PI 3-Kinase (human) HTRF assay, p110α/p85α
# Format: biochemical
# ASSAY_CONTEXT: in vitro; read-out: PI3K α IC50
MEASUREMENT_NAME: IC50

// below: answered compounds
{"columns": ["COMPOUND", "MEASURED_VALUE"],
 "data": [
  ["CN(C)C1CN(c2cnc3ccc(-c4ccc5oc(N)nc5c4)cc3n2)C1", "< 100 nM"],
  ["Nc1nc2cc(-c3ccc4ncc(N5CCN(C(=O)C6(N)CC6)CC5)nc4c3)ccc2o1", "< 1000 nM"],
  ["CC(=O)Nc1cn2cc(-c3ccc4oc(N)nc4c3)ccc2n1", "< 100 nM"],
  ["Nc1nc2cc(-c3ccc4ncc(N5CC(N6CCOCC6)C5)nc4c3)c(Cl)cc2o1", "< 1000 nM"],
  ["COC(=O)N1CCC(n2ncc3c(N4CCOCC4)nc(-c4ccc5oc(N)nc5c4)nc32)CC1", "< 1000 nM"],
  ["Cc1cc2oc(N)nc2cc1-c1ccc2ncc(N3CC(N4CCOCC4)C3)nc2c1", "< 10000 nM"]
]}

IN: Indicate its recorded IC50; the compound in question is Cc1cc(-c2ccc3oc(N)nc3c2)cc2c(C(=O)N3CCCC3)cnn12
OUT: < 100 nM

IN: Fill in reported IC50 for this entry: Nc1nc2cc(-c3ccc4ncc(C(=O)N5CC[C@@H](O)C5)n4c3)ccc2o1
OUT: < 100 nM

###

# TARGET_SYSTEM: p110α/p85α (Homo sapiens (Human), UniProt P42336)
# ASSAY_PROTOCOL: PI 3-Kinase (human) HTRF assay, p110α/p85α
# Assay type: biochemical
# ASSAY_CONTEXT: in vitro; read-out: PI3K α IC50
MEASUREMENT_NAME: IC50

{"columns": ["COMPOUND", "MEASURED_VALUE"],
 "data": [
  ["Nc1nc2cc(-c3ccc4nnc(-c5ccncc5)n4c3)ccc2o1", "< 1000 nM"],
  ["CC(Oc1nc(-c2ccc3oc(N)nc3c2)cnc1N)C(F)(F)F (stereo not drawn)", "< 10000 nM"],
  ["Nc1nc2cc(-c3ccc4ncc(N5CCN(C6CC6)CC5)nc4c3)ccc2o1", "< 100 nM"],
  ["Nc1nc2cc(-c3ccc4ncc(C(=O)N5CCC(N)CC5)n4c3)ccc2o1", "< 100 nM"]
]}

IN: # return recorded IC50 for input CN(C)C1CCN(C(=O)c2cnc3ccc(-c4ccc5oc(N)nc5c4)cn23)CC1
OUT: < 1000 nM

IN: Name the recorded IC50 of the compound listed here: Nc1nc2cc(-c3ccn4ncc(C(=O)N5CCCC5)c4c3)ccc2o1
OUT: < 100 nM

IN: Item Cc1c(-c2ccc3oc(N)nc3c2)ccc2ncc(N3CCN[C@@H](C)C3)nc12 : provide IC50
OUT: < 1000 nM

IN: // fetch IC50 given entry CCN1CCN(C2CN(c3cnc4ccc(-c5ccc6oc(N)nc6c5)cc4n3)C2)CC1
OUT: < 100 nM

IN: Supply IC50 value. Item: CC(C)n1cnc2ccc(-c3ccc4oc(N)nc4c3)cc2c1=O
OUT: < 100 nM
